Target: Gal(b1-4)GlcNAc(b1-3)Gal(b1-4)GlcNAc(b1-2)Man(a1-3)[Gal(b1-4)GlcNAc(b1-3)Gal(b1-4)GlcNAc(b1-2)Man(a1-6)]Man(b1-4)GlcNAc(b1-4)GlcNAc
Experiment description: glycan array binding signal (z-score within array); higher = stronger binding
Measurement parameters: glycan notation: IUPAC condensed, linker removed
About 410 targets per protein were measured; listed, in parts, are those with the strongest signals and a random draw of the rest.
Readout name: glycan array binding signal (z-score)

Below, each entry is followed by its recorded glycan array binding signal (z-score) result.
Binder: Actd5 (Actinidia), P84527 (protein) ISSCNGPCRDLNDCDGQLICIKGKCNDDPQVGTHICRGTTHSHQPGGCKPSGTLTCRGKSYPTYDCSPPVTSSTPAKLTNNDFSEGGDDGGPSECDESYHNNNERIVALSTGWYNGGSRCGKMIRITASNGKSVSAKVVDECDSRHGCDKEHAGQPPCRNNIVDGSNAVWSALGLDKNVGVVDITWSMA
Reported result: 3.9
--
Binder: SBD-G4S3-Fc (protein) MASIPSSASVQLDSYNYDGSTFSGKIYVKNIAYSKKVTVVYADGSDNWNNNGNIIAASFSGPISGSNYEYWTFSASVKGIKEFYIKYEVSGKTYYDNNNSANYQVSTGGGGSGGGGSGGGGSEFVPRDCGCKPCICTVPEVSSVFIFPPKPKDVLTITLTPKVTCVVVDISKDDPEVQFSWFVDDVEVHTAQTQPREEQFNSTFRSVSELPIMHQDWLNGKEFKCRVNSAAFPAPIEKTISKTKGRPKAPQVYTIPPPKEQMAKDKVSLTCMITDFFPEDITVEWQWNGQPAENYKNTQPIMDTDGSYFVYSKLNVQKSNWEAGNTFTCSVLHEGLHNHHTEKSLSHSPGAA
Reported result: 8.04
--
Binder: Si Bti9 1b-HA (Solanum lycopersicum) (protein) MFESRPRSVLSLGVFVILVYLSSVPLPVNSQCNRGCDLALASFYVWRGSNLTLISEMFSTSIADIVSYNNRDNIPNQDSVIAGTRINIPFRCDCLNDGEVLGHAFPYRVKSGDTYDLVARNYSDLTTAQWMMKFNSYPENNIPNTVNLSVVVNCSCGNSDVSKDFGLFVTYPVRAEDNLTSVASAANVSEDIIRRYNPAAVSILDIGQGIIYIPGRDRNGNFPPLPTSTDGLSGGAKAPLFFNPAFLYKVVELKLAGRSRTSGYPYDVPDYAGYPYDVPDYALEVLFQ
Reported result: 3.44
--
Binder: MGL1 (Mus musculus), P49300 (protein) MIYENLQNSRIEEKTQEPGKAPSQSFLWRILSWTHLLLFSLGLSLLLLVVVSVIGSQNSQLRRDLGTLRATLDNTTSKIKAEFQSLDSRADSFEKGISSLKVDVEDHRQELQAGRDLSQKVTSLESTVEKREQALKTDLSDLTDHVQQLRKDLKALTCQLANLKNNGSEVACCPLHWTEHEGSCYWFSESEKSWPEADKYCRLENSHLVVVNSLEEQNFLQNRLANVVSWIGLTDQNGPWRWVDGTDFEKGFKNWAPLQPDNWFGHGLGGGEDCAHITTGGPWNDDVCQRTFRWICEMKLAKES
Reported result: 2.62
--
Binder: RobpsCRA (Robinia pseudoacacia) (protein) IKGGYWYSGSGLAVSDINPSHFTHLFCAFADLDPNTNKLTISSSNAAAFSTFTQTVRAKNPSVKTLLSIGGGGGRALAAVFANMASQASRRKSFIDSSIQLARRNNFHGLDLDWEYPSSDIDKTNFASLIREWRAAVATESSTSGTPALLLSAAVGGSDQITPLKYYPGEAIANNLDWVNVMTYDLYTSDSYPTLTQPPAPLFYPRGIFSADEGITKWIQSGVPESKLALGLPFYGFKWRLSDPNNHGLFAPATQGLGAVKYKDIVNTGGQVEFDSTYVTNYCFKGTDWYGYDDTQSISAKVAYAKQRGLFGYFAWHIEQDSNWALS
Reported result: 1.01

Consider the additional binder presented here.
Reported glycan array binding signal (z-score), binder Gal 7 (Homo sapiens) (protein) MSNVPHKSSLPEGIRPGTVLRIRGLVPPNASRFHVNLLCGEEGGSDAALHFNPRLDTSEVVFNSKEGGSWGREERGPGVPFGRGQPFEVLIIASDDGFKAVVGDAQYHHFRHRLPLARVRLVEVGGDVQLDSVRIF : ____
2.23
